Target: G-protein coupled receptor 55 (Homo sapiens)
Assay: GPR55 antagonists blocking LPI-driven arrestin recruitment, primary screen, imaging, U2OS, beta-arrestin-GFP, LPI agonist (AID 2013);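 also: U2OS cells stably carrying GPR55 and arrestin-GFP stimulated by 5 µM LPI near EC80; imaged beta-arrestin-GFP aggregate spots per cell after agonist stimulation; plate controls were LPI-stimulated DMSO wells for no effect and DMSO wells without LPI for full effect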
Conditions: U2OS GPR55 beta-arrestin-GFP translocation imaging, LPI antagonism; at 10 µM; active compounds read high
The campaign covered roughly 290,000 compounds. About 370 (0.13%) were called active. Only a selection was taken, and actives are over-represented in it overall. Potency and affinity values are given separately.
The following compounds are listed with their measured inhibition values.
PROPERTY: inhibition (%)

>>> reported("Cc1ccc(S(=O)(=O)N(CCCO)CC(O)CON=C2c3ccccc3-c3ccccc32)cc1 (stereo not given)")
4
>>> reported("COc1ccc(OC)c(-n2c(C)cc(/C=C3\\C(=N)N4N=C(CC(=O)N5CCOCC5)SC4=NC3=O)c2C)c1")
21.8
>>> reported("O=C(CN(c1ccc(Cl)cc1)S(=O)(=O)c1ccc(Cl)c([N+](=O)[O-])c1)NCCc1ccccc1")
5.1
>>> reported("CCOC(=O)c1ccccc1NC(=S)N1CCCCC1")
4.2
>>> reported("CC(=O)N1CCN(c2ccc(NC(=O)c3ccc(F)cc3)cc2)CC1")
4.7
>>> reported("COc1cccc(Nc2cc(C)c3ccccc3n2)c1")
6.5
>>> reported("c1cc2c3c(cccc3c1)C(N1CCCCC1)=N2")
3.4
>>> reported("COc1ccccc1N1CCN(C2=Nc3cccc4cccc2c34)CC1")
95.5
>>> reported("CN(Cc1ccc(Cl)cc1Cl)C(=O)CNC(=O)c1ccco1")
8.3
>>> reported("O=C(CN(c1ccc(Cl)cc1)S(=O)(=O)c1ccc(Cl)c([N+](=O)[O-])c1)NCCc1ccc(F)cc1")
7.2

###

Target: G-protein coupled receptor 55 (Homo sapiens) (UniProt Q9Y2T6)
Sequence (Q9Y2T6 whole entry, looked up): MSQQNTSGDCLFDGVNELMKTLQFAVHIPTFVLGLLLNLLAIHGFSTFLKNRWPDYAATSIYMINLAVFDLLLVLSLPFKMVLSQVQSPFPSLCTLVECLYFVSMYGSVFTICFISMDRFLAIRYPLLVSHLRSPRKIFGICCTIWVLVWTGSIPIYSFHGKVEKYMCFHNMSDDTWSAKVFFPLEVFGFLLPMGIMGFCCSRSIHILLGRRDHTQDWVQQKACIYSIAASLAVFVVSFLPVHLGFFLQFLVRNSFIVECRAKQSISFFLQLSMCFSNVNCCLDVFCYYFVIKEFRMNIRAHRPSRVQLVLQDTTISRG
Assay: GPR55 antagonists blocking LPI-driven arrestin recruitment, primary screen, imaging, U2OS, beta-arrestin-GFP, LPI agonist (AID 2013);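 also: U2OS cells stably carrying GPR55 and arrestin-GFP stimulated by 5 µM LPI near EC80; imaged beta-arrestin-GFP aggregate spots per cell after agonist stimulation; plate controls were LPI-stimulated DMSO wells for no effect and DMSO wells without LPI for full effect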
Settings: U2OS GPR55 beta-arrestin-GFP translocation imaging, LPI antagonism; at 10 µM; active compounds read high
About 370 (0.13%) of roughly 290,000 compounds were called active. The sample holds actives, similar compounds and a random draw of the others, so the mix is not that of the screen. Entries with a potency or affinity are not part of this list.
PROPERTY: inhibition (%)

>>> reported("Cc1ccccc1Nc1nc(NCc2ccco2)c2ccccc2n1")
54.3
>>> reported("O=C(O)/C=C/c1cccnc1")
10.5
>>> reported("CCS(=O)(=O)c1ccc(-c2csc(-c3ccccc3Cl)n2)c(Cl)c1Cl")
-11.1
>>> reported("Cc1cccc(NC(=S)N2CCC(NC(=O)c3ccco3)CC2)c1")
7.3
>>> reported("CCOC(=O)c1c(N)sc(C(O)(C(F)(F)F)C(F)(F)F)c1-c1ccc(OC)cc1OC")
22.9
>>> reported("CCOc1ccc(Cl)cc1S(=O)(=O)N1CCC(C(=O)NCC2CCCO2)CC1 (stereo unspecified)")
-1.1
>>> reported("CNc1nc(NCc2ccccc2)c2ccccc2n1")
5.4
>>> reported("CCOC(=O)c1c(N)sc(C(O)(C(F)(F)F)C(F)(F)F)c1-c1ccc(Cl)cc1")
5.7
>>> reported("CCS(=O)(=O)c1ccc(-c2csc(-c3ccccc3)n2)c(Cl)c1Cl")
31.4
>>> reported("CCn1cc(CN2CCC(C(=O)Nc3ccc(Oc4ccccc4)nc3)CC2)cn1")
17
>>> reported("OCCNc1nc(NCc2ccccc2)c2ccccc2n1")
-6.4
